Test system: giant foxtail
Assay: Test B pre/postemergence giant foxtail
Format: in vivo, Setaria faberii
Conditions: Rate 62 g/ha, Postemergence; scale 0 to 10 (0 no effect, 10 complete control)
Would you mind telling me the reported Giant foxtail plant response rating of each entry?

Previously resolved entries follow.
compound: CC(C)N(C(=O)n1oc(=O)n(CC(=O)C2CC2)c1=O)c1ccccc1
observed.result: 2
//
compound: CC(=O)NCn1c(=O)on(C(=O)N(c2ccc(F)cc2)C(C)C)c1=O
observed.result: 1
//
compound: C=CCn1c(=O)on(C(=O)N(c2ccc(Cl)cc2)C(C)C2CC2)c1=O (centres unmarked)
observed.result: 0

Record Giant foxtail plant response rating per entry; entries follow.
1. CC(C)N(C(=O)n1oc(=O)n(CC2=NOCC2)c1=O)c1ccc(F)cc1
2. CC(C)N(C(=O)n1oc(=O)n(CO)c1=O)c1ccc(F)cc1

[9, 0]

----------
Tested on: corn
Test: Test B pre/postemergence corn
Format: in vivo, Zea mays
Conditions: Postemergence, Rate 250 g/ha; scale 0 to 10
metric: Corn plant response rating

molecule: CC(C)N(C(=O)n1oc(=O)n(CC2=NOCC2)c1=O)c1ccc(F)cc1
subject.of.test: corn
metric: Corn plant response rating
observed.result: 0

molecule: CC(C)N(C(=O)n1oc(=O)n(C(C)C(=O)N(C)C)c1=O)c1ccccc1 (stereo not shown)
subject.of.test: corn
metric: Corn plant response rating
observed.result: 0

molecule: CC(C)N(C(=O)n1oc(=O)n(C(C)Cl)c1=O)c1ccccc1 (stereo not shown)
subject.of.test: corn
metric: Corn plant response rating
observed.result: 0

Let's switch to this molecule now.
Form field: reported Corn plant response rating of COC(=O)CCCn1c(=O)on(C(=O)N(c2ccc(F)cc2F)C(C)C)c1=O 0

----------
System: rape
Test: Test B pre/postemergence rape
Format: in vivo, Brassica napus
Settings: Postemergence, Rate 125 g/ha; scale of 0 to 10 where 0 is no effect and 10 is complete control
metric: Rape plant response rating
Give bare numbers.

Previously resolved entries follow.
compound: C=CCn1c(=O)on(C(=O)N(c2ccc(Cl)cc2)C(C)C)c1=O [Compound 105]
subject.of.test: rape
Rape plant response rating: 0
//
compound: CC(C)N(C(=O)n1oc(=O)n(CCCCCl)c1=O)c1ccccc1 [Compound 792]
subject.of.test: rape
Rape plant response rating: 3
//
compound: CC(=O)OCC(CCl)n1c(=O)on(C(=O)N(c2ccc(F)cc2F)C(C)C)c1=O (racemic) [Compound 708]
subject.of.test: rape
Rape plant response rating: 0

Let's switch to this compound now.
Form field: reported Rape plant response rating of CC(C)N(C(=O)n1oc(=O)n(CC2CCCCO2)c1=O)c1ccc(Cl)cc1 (stereo not shown) [Compound 660] 0

----------
Test system: wild oat
Experiment: Test B pre/postemergence wild oat
Assay type: in vivo, Avena fatua
Details: Preemergence, Rate 62 g/ha; scale of 0 to 10 where 0 is no effect and 10 is complete control
Protocol: […] At the same time, these crop and weed species were also treated with postemergence applications of test chemicals formulated in the same manner. […] Treated plants and controls were maintained in a greenhouse for twelve to sixteen days, after which all species were compared to controls and visually evaluated. […]
metric: Plant response rating, Wild oats
Answers are plain numbers.

Previously resolved entries follow.
compound: CC(C)N(C(=O)n1oc(=O)n(CC2=NOCC2)c1=O)c1ccc(F)cc1
subject.of.test: wild oat
Plant response rating, Wild oats: 0
--
compound: CC(C)N(C(=O)n1oc(=O)n(CO)c1=O)c1ccc(F)cc1
subject.of.test: wild oat
Plant response rating, Wild oats: 0
--
compound: CC(=O)NCn1c(=O)on(C(=O)N(c2ccc(F)cc2)C(C)C)c1=O
subject.of.test: wild oat
Plant response rating, Wild oats: 0
--
compound: CC(C)N(C(=O)n1oc(=O)n(C(C)C(=O)N(C)C)c1=O)c1ccccc1 (stereo not drawn)
subject.of.test: wild oat
Plant response rating, Wild oats: 0
--
compound: CC(C)N(C(=O)n1oc(=O)n(CCCC(F)(F)F)c1=O)c1ccc(F)cc1F
subject.of.test: wild oat
Plant response rating, Wild oats: 7

Let's switch to this compound now.
Form field: reported Plant response rating, Wild oats of CC(C)N(C(=O)n1oc(=O)n(C(C)Cl)c1=O)c1ccccc1 (stereo not drawn) 0

----------
System: corn
Test: Test B pre/postemergence corn
Type: in vivo, Zea mays
Settings: Rate 500 g/ha, Postemergence; scale 0 to 10, 0 no effect, 10 complete control
metric: Corn plant response rating
Give bare numbers.

Previously resolved entries follow.
smiles.input: CC(C)N(C(=O)n1oc(=O)n(C2CCCCC2)c1=O)c1ccc(F)cc1F
Corn plant response rating: 0
--
smiles.input: CC(C)N(C(=O)n1oc(=O)n(CCC2OCCCO2)c1=O)c1ccc(F)cc1
Corn plant response rating: 6
--
smiles.input: Cc1cccc(C)c1-n1c(=O)on(C(=O)N(c2ccc(Cl)cc2)C(C)C)c1=O
Corn plant response rating: 0
--
smiles.input: Cc1ccccc1Cn1c(=O)on(C(=O)N(c2ccc(F)cc2F)C(C)C)c1=O
Corn plant response rating: 2
--
smiles.input: COc1cccc(C)c1-n1c(=O)on(C(=O)N(c2ccc(F)cc2F)C(C)C)c1=O
Corn plant response rating: 0

Let's switch to this molecule now.
Form field: reported Corn plant response rating of Cc1nn(C)c(Cl)c1-n1c(=O)on(C(=O)N(c2ccccc2)C(C)C)c1=O 0

----------
Tested on: surinam grass
Assay: Test B pre/postemergence surinam grass
Assay type: in vivo, Brachiaria decumbens
Conditions: Postemergence, Rate 62 g/ha; scale of 0 to 10, 0 is no effect, 10 is complete control
Description: […] At the same time, these crop and weed species were also treated with postemergence applications of test chemicals formulated in the same manner. […] Treated plants and controls were maintained in a greenhouse for twelve to sixteen days, after which all species were compared to controls and visually evaluated. […]
Would you mind telling me the reported B. signalgrass plant response rating of each entry?

Previously resolved entries follow.
compound: CC(C)N(C(=O)n1oc(=O)n(CCCF)c1=O)c1ccccc1 [Compound 559]
B. signalgrass plant response rating: 4
--
compound: C=CCCCn1c(=O)on(C(=O)N(c2ccc(Cl)cc2)C(C)C)c1=O [Compound 546]
B. signalgrass plant response rating: 0
--
compound: CC(C)N(C(=O)n1oc(=O)n(CC2CCC2)c1=O)c1ccccc1 [Compound 580]
B. signalgrass plant response rating: 0
--
compound: CCC=CCn1c(=O)on(C(=O)N(c2ccccc2)C(C)C)c1=O [Compound 582]
B. signalgrass plant response rating: 0

Record B. signalgrass plant response rating per entry; entries follow.
1. CC(C)N(C(=O)n1oc(=O)n(CC2CCC2)c1=O)c1ccc(F)cc1F [Compound 521]
2. CC(C)N(C(=O)n1oc(=O)n(C[Si](C)(C)C)c1=O)c1ccccc1 [Compound 577]

0
0

----------
Would you mind telling me the reported Crabgrass plant response rating of each entry?
System: crabgrass
Test: Test B pre/postemergence crabgrass
Format: in vivo, Digitaria sanguinalis
Conditions: Rate 500 g/ha, Postemergence; scale 0 to 10, 0 is no effect, 10 is complete control
Description: […] At the same time, these crop and weed species were also treated with postemergence applications of test chemicals formulated in the same manner. […] Treated plants and controls were maintained in a greenhouse for twelve to sixteen days, after which all species were compared to controls and visually evaluated. […]
Give bare numbers.

Record Crabgrass plant response rating per entry; entries follow.
1. CC(C)N(C(=O)n1oc(=O)n(C(C)C)c1=O)c1ccncc1 [Compound 663]
2. CC(C)N(C(=O)n1oc(=O)n(CC2CCCCO2)c1=O)c1ccccc1 (stereo not shown) [Compound 659]
3. CC(C)N(C(=O)n1oc(=O)n(CCCCl)c1=O)c1ccc(Cl)cc1 [Compound 749]

1: 4; 2: 8; 3: 9

Form field: reported Crabgrass plant response rating of CC(C)N(C(=O)n1oc(=O)n(CC2CCCCO2)c1=O)c1ccc(Cl)cc1 (stereo not shown) [Compound 660] 7

----------
Tested on: surinam grass
Test: Test B pre/postemergence surinam grass
Assay type: in vivo, Brachiaria decumbens
Details: Rate 500 g/ha, Postemergence; scale 0 to 10, 0 no effect, 10 complete control
metric: B. signalgrass plant response rating

Previously resolved entries follow.
smiles.input: CC(C)N(C(=O)n1oc(=O)n([C@H](C)c2ccccc2)c1=O)c1ccc(F)cc1
B. signalgrass plant response rating: 0

smiles.input: Cc1ccccc1-n1c(=O)on(C(=O)N(c2ccc(Cl)cc2Cl)C(C)C)c1=O
B. signalgrass plant response rating: 0

smiles.input: CC(C)N(C(=O)n1oc(=O)n(CCC2OCCCO2)c1=O)c1ccc(F)cc1
B. signalgrass plant response rating: 8

Let's switch to this molecule now.
Form field: reported B. signalgrass plant response rating of Cc1nc(C)c(Cn2c(=O)on(C(=O)N(c3ccc(F)cc3)C(C)C)c2=O)s1 2

----------
Tested on: sugar beet
Test: Test B pre/postemergence sugar beet
Format: in vivo, Beta vulgaris
Settings: Preemergence, Rate 250 g/ha; scale 0 (no effect) to 10 (complete control)
Would you mind telling me the reported Sugarbeets plant response rating of each entry?
One number for each entry.

Previously resolved entries follow.
compound: CC(C)N(C(=O)n1oc(=O)n(CCCCl)c1=O)c1ccc(Cl)cc1
Sugarbeets plant response rating: 6

compound: C#CCn1c(=O)on(C(=O)N(c2ccccc2)C(C)C)c1=O
Sugarbeets plant response rating: 3

compound: Cc1nc(C(C)n2c(=O)on(C(=O)N(c3ccc(F)cc3)C(C)C)c2=O)sc1C (centres unmarked)
Sugarbeets plant response rating: 0

Record Sugarbeets plant response rating per entry; entries follow.
1. CC(C)N(C(=O)n1oc(=O)n(CC2CCCCO2)c1=O)c1ccc(F)cc1F (centres unmarked)
2. CC(C)N(C(=O)n1oc(=O)n(C(C)C2CCC2)c1=O)c1ccc(F)cc1 (centres unmarked)

[7, 2]
